All values here come from patent US20110224182A1.

protocol_notes: Solubility (Method B): solvent added in portions until a clear solution is obtained
Assay type: physicochemical
cond: ethanol, organic solvent or mixture, thermodynamic from solid, ethanol, ambient temperature; read-out: Solubility in ethanol
parameter: solubility (mg/mL)
Answer format: numeric, mg/mL implied, no suffix.

In: Looking for the measured solubility of C=C(C)[C@@H]1CC[C@]2(C(=O)O)CC[C@]3(C)[C@H](CC[C@@H]4[C@@]5(C)CC[C@H](OC(=O)CC(C)(C)C(=O)O)C(C)(C)[C@@H]5CC[C@]43C)[C@@H]12 [DSB Free Acid] , can you help?
Out: 15
